Catalogue of Average SAHA % Dissolved at Time, minutes 30 readings, one per entry.
EXPERIMENTAL DETAILS: Dissolution rate of about 100 mg SAHA API before encapsulation (USP Dissolution Apparatus II, 900 mL 2.0% Tween, 37±0.5° C., 100 rpm, HPLC)
Type: physicochemical
EXPERIMENTAL SETUP: 30 minutes
QUANTITY NAME: Average SAHA % Dissolved at Time, minutes 30 (%)

>>> measured_number("O=C(CCCCCCC(=O)Nc1ccccc1)NO [1007D, suberoylanilide hydroxamic acid]")
61.9
>>> measured_number("O=C(CCCCCCC(=O)Nc1ccccc1)NO [1376-C-RO-02, suberoylanilide hydroxamic acid]")
58.3
>>> measured_number("O=C(CCCCCCC(=O)Nc1ccccc1)NO [1136-1136-00-001, suberoylanilide hydroxamic acid]")
69.3
>>> measured_number("O=C(CCCCCCC(=O)Nc1ccccc1)NO [1008D, suberoylanilide hydroxamic acid]")
51.3
